B1: OR4K15 (parent)
chain: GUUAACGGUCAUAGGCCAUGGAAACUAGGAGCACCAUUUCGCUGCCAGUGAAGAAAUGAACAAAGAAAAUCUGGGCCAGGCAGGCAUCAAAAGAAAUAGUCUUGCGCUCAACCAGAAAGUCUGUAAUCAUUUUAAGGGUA

variants of: B1; experiment: self-cleavage, relative activity (ratio to wild type); higher = more cleavage; in vitro, sequencing; the parent is a self-cleaving ribozyme
Classification field: condition met = self-cleavage at or over 1; condition not met = self-cleavage under 1.

mut="A47G A63U" class_label="condition met"
mut="A69U G137U" class_label="condition met"
mut="A11U A51U" class_label="condition not met"
mut="G58U U120A" class_label="condition met"
mut="U49G A90G" class_label="condition not met"
mut="A110C U132A" class_label="condition not met"
mut="A13U A18U" class_label="condition not met"
mut="U87C G138A" class_label="condition met"
mut="C25U U72A" class_label="condition not met"
mut="A11G A51G" class_label="condition met"

query: API: above_or_equal(metric=self-cleavage, cutoff=1) for item U3A U130C
result: condition met

query: API: above_or_equal(metric=self-cleavage, cutoff=1) for item U12A A60C
result: condition met

query: API: above_or_equal(metric=self-cleavage, cutoff=1) for item A22U U57C
result: condition not met
